biological target: HIV Env, isolate ZM197M.PB7 (HIV); assay: cell-based or functional assay
measured.property: IC80 (µg/ml) with constrains

Before answering, review these 3 worked examples.
>>> result("ePGDM13 (antibody, V domains shown) VH: QAQLVQSGPEVRKPGTSVKVSCKNPGNTLTTYDLHWVRQVPGQGLQWMGWISHEGDKKVIVERFKAKVTIDWDRSTNTAYLQLSGLTSEDTAVYYCAKGSKHRLRDYALYDEDGALNWAVDVDYLANLEFWGQGTAVTVSS VL: DIVLTQSPLSLSVTPGESASISCKSSHSLQHGDRNNYLAWYVQKPGRSPQLLLDLASERASGVPDRFSGSGSEKDFTLKISRVETEDVGTYYCMQGRESPWTFGQGTKVDIK")
"0.24 µg/mL"
>>> result("PGDM1400 (antibody, V domains shown) VH: QVHLTQSGPEVRKPGTSVKVSCKAPGNTLKTYDLHWVRSVPGQGLQWMGWISHEGDKKVIVERFKAKVTIDWDRSTNTAYLQLSGLTSGDTAVYYCAKGSKHRLRDYALYDDDGALNWAVDVDYLSNLEFWGQGTAVTVSS VL: DFVLTQSPHSLSVTPGESASISCKSSHSLIHGDRNNYLAWYVQKPGRSPQLLIYLASSRASGVPDRFSGSGSDKDFTLKISRVETEDVGTYYCMQGRESPWTFGQGTKVDIK")
"0.282 µg/mL"
>>> result("ePGDM5 (antibody, V domains shown) VH: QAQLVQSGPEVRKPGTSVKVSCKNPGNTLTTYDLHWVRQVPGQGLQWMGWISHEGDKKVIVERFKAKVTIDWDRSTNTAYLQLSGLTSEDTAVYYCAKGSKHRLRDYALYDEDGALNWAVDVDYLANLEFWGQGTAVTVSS VL: DFVLTQSPLSLSVTPGESASISCKSDHSLQHGDRNNYLAWYVQKPGRSPQLLIDLASERASGVPDRFSGSGSRKDFTLKIDRVEAEDVGTYYCMQGRESPWTFGQGTKVDIK")
"0.141 µg/mL"

Query binder follows.
What measured IC80 (µg/ml) with constrains goes with ePGDM9 (antibody, V domains shown) VH: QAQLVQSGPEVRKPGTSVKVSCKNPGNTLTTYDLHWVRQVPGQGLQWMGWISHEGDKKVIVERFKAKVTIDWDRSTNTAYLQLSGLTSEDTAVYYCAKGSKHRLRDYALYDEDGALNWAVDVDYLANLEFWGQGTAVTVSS VL: DIVLTQSPLSLSVTPGESASISCKSSQSLIHGDRNNYLAWYVQKPGRSPQLLIDLASERASGVPDRFSGSGSRKDFTLKISRVETEDVGTYYCMQGRESPWTFGQGTKVDIK ?
0.092 µg/mL
